- System: Human immunodeficiency virus 1
- Assay: Antiviral activity against wild type HIV-1 3B infected in wild type human C8166 cells
- Type: functional, organism-based
- Assay Context: Human immunodeficiency virus 1, 3B
pIC50: −log10 of the molar value.
The entries below are paired with their reported pIC50.

Molecule: COC(=O)[C@H](C)NP(=O)(OC[C@@H]1C=C[C@H](n2cc(C)c(=O)[nH]c2=O)O1)Oc1ccc(C(F)(F)F)cc1 (stereo not given in full)
pIC50: 7.66
//
Molecule: COC(=O)[C@H](C)NP(=O)(OC[C@@H]1C=C[C@H](n2cc(C)c(=O)[nH]c2=O)O1)Oc1cccc(S(F)(F)(F)(F)F)c1 (stereo not given in full)
pIC50: 7.27
//
Molecule: Cc1cn([C@H]2C=C[C@@H](CO)O2)c(=O)[nH]c1=O [STAVUDINE]
pIC50: 5.39
//
Molecule: COC(=O)[C@H](C)NP(=O)(OC[C@@H]1C=C[C@H](n2cc(C)c(=O)[nH]c2=O)O1)Oc1cccc(C(F)(F)F)c1 (stereo not given in full)
pIC50: 7.41
//
Molecule: COC(=O)[C@H](C)NP(=O)(OC[C@@H]1C=C[C@H](n2cc(C)c(=O)[nH]c2=O)O1)Oc1ccccc1 (stereo not given in full)
pIC50: 6.52

====

- Assay: Selectivity index, ratio of CC50 for human MT4 cells to IC50 for antiviral activity against HIV-1 IIIB infected in MT4 cells
- Assay type: toxicity, cell-based
- Assay Context: read-out: Ratio CC50/IC50
Hi, to clarify the labels: Fulfilled covers selectivity ratio from 1000 upward, Not fulfilled covers anything below 1000.

Compound: COC(=O)[C@H](C)NP(=O)(OC[C@@H]1C=C[C@H](n2cc(C)c(=O)[nH]c2=O)O1)Oc1ccc(C(F)(F)F)cc1 (stereo not given in full)
Label Class: Fulfilled
--
Compound: COC(=O)[C@H](C)NP(=O)(OC[C@@H]1C=C[C@H](n2cc(C)c(=O)[nH]c2=O)O1)Oc1cccc(S(F)(F)(F)(F)F)c1 (stereo not given in full)
Label Class: Fulfilled
--
Compound: COC(=O)[C@H](C)NP(=O)(OC[C@@H]1C=C[C@H](n2cc(C)c(=O)[nH]c2=O)O1)Oc1ccccc1 (stereo not given in full)
Label Class: Fulfilled
--
Compound: Cc1cn([C@H]2C=C[C@@H](CO)O2)c(=O)[nH]c1=O [STAVUDINE]
Label Class: Not fulfilled
--
Compound: COC(=O)[C@H](C)NP(=O)(OC[C@@H]1C=C[C@H](n2cc(C)c(=O)[nH]c2=O)O1)Oc1cccc(C(F)(F)F)c1 (stereo not given in full)
Label Class: Fulfilled

====

- Assay: Selectivity index, ratio of CC50 for human MT4 cells to IC50 for antiviral activity against HIV-2 ROD infected in human MT4 cells
- Type: toxicity, cell-based
- Assay Context: read-out: Ratio CC50/IC50
The entries below are paired with their reported selectivity ratio.

Compound: COC(=O)[C@H](C)NP(=O)(OC[C@@H]1C=C[C@H](n2cc(C)c(=O)[nH]c2=O)O1)Oc1ccccc1 (stereo not given in full)
selectivity ratio: 930

Compound: COC(=O)[C@H](C)NP(=O)(OC[C@@H]1C=C[C@H](n2cc(C)c(=O)[nH]c2=O)O1)Oc1cccc(C(F)(F)F)c1 (stereo not given in full)
selectivity ratio: 1350

Compound: Cc1cn([C@H]2C=C[C@@H](CO)O2)c(=O)[nH]c1=O
selectivity ratio: 695

Compound: COC(=O)[C@H](C)NP(=O)(OC[C@@H]1C=C[C@H](n2cc(C)c(=O)[nH]c2=O)O1)Oc1cccc(S(F)(F)(F)(F)F)c1 (stereo not given in full)
selectivity ratio: 1460

Compound: COC(=O)[C@H](C)NP(=O)(OC[C@@H]1C=C[C@H](n2cc(C)c(=O)[nH]c2=O)O1)Oc1ccc(C(F)(F)F)cc1 (stereo not given in full)
selectivity ratio: 912

====

- System: Human immunodeficiency virus 1
- Assay: Antiviral activity against wild type HIV-1 3B infected in human MT4 cells
- Assay type: functional, organism-based
- Assay Context: Human immunodeficiency virus 1, 3B
pIC50: −log10 of the molar value.
Hi, to clarify the labels: fulfilled covers pIC50 from 7 upward, not fulfilled covers anything below 7.

Compound: COC(=O)[C@H](C)NP(=O)(OC[C@@H]1C=C[C@H](n2cc(C)c(=O)[nH]c2=O)O1)Oc1cccc(S(F)(F)(F)(F)F)c1 (stereo not given in full)
Label Class: fulfilled
--
Compound: COC(=O)[C@H](C)NP(=O)(OC[C@@H]1C=C[C@H](n2cc(C)c(=O)[nH]c2=O)O1)Oc1ccc(C(F)(F)F)cc1 (stereo not given in full)
Label Class: fulfilled
--
Compound: COC(=O)[C@H](C)NP(=O)(OC[C@@H]1C=C[C@H](n2cc(C)c(=O)[nH]c2=O)O1)Oc1cccc(C(F)(F)F)c1 (stereo not given in full)
Label Class: fulfilled
--
Compound: COC(=O)[C@H](C)NP(=O)(OC[C@@H]1C=C[C@H](n2cc(C)c(=O)[nH]c2=O)O1)Oc1ccccc1 (stereo not given in full)
Label Class: not fulfilled
--
Compound: Cc1cn([C@H]2C=C[C@@H](CO)O2)c(=O)[nH]c1=O
Label Class: not fulfilled

====

- Assay: physchem
- Assay Context: phosphate buffered saline, pH 7.4
- Description: Aqueous solubility of compound in phosphate buffered saline at pH 7.4 incubated for 2 hrs by turbidimetric analysis

Molecule: COC(=O)[C@H](C)NP(=O)(OC[C@@H]1C=C[C@H](n2cc(C)c(=O)[nH]c2=O)O1)Oc1cccc(S(F)(F)(F)(F)F)c1 (stereo not given in full)
solubility kinetic at 2 h: > 100 µM

Molecule: COC(=O)C1=C(C)NC(C)=C(C(=O)OCCN(C)Cc2ccccc2)C1c1cccc([N+](=O)[O-])c1 (stereo not given)
solubility kinetic at 2 h: 10 to 30 µM

Molecule: Cc1cn([C@H]2C=C[C@@H](CO)O2)c(=O)[nH]c1=O
solubility kinetic at 2 h: > 100 µM

Molecule: COC(=O)[C@H](C)NP(=O)(OC[C@@H]1C=C[C@H](n2cc(C)c(=O)[nH]c2=O)O1)Oc1cccc(C(F)(F)F)c1 (stereo not given in full)
solubility kinetic at 2 h: > 100 µM

Molecule: COC(=O)[C@H](C)NP(=O)(OC[C@@H]1C=C[C@H](n2cc(C)c(=O)[nH]c2=O)O1)Oc1ccc(C(F)(F)F)cc1 (stereo not given in full)
solubility kinetic at 2 h: > 100 µM

====

- Test system: Human immunodeficiency virus 2
- Assay: Antiviral activity against HIV-2 ROD infected in human MT4 cells
- Assay Context: Human immunodeficiency virus 2, ISOLATE ROD
Assay Endpoint: log10 IC50 (log10 of the value in µM)

Molecule: COC(=O)[C@H](C)NP(=O)(OC[C@@H]1C=C[C@H](n2cc(C)c(=O)[nH]c2=O)O1)Oc1cccc(S(F)(F)(F)(F)F)c1 (stereo not given in full)
Assay Endpoint: log10 IC50
Observed Result: -1.44
//
Molecule: COC(=O)[C@H](C)NP(=O)(OC[C@@H]1C=C[C@H](n2cc(C)c(=O)[nH]c2=O)O1)Oc1cccc(C(F)(F)F)c1 (stereo not given in full)
Assay Endpoint: log10 IC50
Observed Result: -1.31
//
Molecule: Cc1cn([C@H]2C=C[C@@H](CO)O2)c(=O)[nH]c1=O
Assay Endpoint: log10 IC50
Observed Result: -0.35
//
Molecule: COC(=O)[C@H](C)NP(=O)(OC[C@@H]1C=C[C@H](n2cc(C)c(=O)[nH]c2=O)O1)Oc1ccccc1 (stereo not given in full)
Assay Endpoint: log10 IC50
Observed Result: -0.57
//
Molecule: COC(=O)[C@H](C)NP(=O)(OC[C@@H]1C=C[C@H](n2cc(C)c(=O)[nH]c2=O)O1)Oc1ccc(C(F)(F)F)cc1 (stereo not given in full)
Assay Endpoint: log10 IC50
Observed Result: -1.33

Origin of the recorded values: ChEMBL document CHEMBL4406893
